Reference source for all entries: PubChem BioAssay (NCI)

- System: MOLT-4 leukemia
- MEASUREMENT DESCRIPTION: NCI tumour cell line growth inhibition, 48 h

{"columns": ["COMPOUND", "READOUT QUALIFIER", "TGI / µM"],
 "data": [
  ["C=C1C(=O)C23[C@H](O)C1CC[C@H]2[C@]12COC3(O)[C@@H](O)[C@@H]1C(C)(C)CC[C@@H]2O", "=", 33.1],
  ["Nc1nc2ccc(Sc3ccc4nc(N)[nH]c(=O)c4c3)cc2c(=O)[nH]1", ">", 100],
  ["O=C(O)c1nc2ccc(C(F)(F)F)cc2nc1Nc1ccc(Cl)c(Cl)c1", "=", 17.3],
  ["CCCc1nc(Cl)nc(Cl)c1Cl", "=", 0.551],
  ["O=c1[nH]nc(-c2ccccc2)n1/N=C/c1ccccc1O", ">", 100],
  ["O=C1c2ccccc2C(=O)C12CCc1ccccc12", ">", 100],
  ["Cc1ccc2nc3n[nH]c(N)c3nc2c1", ">", 100],
  ["CCOC(=O)C1Cc2ccc3c4c(ccc(c24)C1)CC(C(=O)OCC)C3", ">", 100],
  ["N#Cc1c(Cl)c2cccnc2n2c1nc1ccccc12", "=", 6.15],
  ["CSc1ncnc2c1ncn2CC(=O)C1CCC2C3CCC4=CC(=O)CCC4(C)C3CCC12C (stereo not drawn)", "=", 4.93],
  ["COc1ccc(/C=C(\\NC(=O)c2ccccc2)c2nc3ccccc3[nH]2)cc1OC", ">", 100],
  ["CN(C)c1ccc(/C=C(\\NC(=O)c2ccccc2)c2nc3ccc4c(c3[nH]2)C(=O)c2ccccc2C4=O)cc1", "=", 31.3],
  ["Clc1ccc2c(NCCCCN3OC3c3ccccc3)ccnc2c1 (stereo not drawn)", "=", 9.3],
  ["CCC(C)C(N)C(=O)N/N=C\\c1c2c(nc3ccccc13)-c1cc3c(c(=O)n1C2)COC(=O)[C@]3(O)CC (stereo partly drawn)", "=", 1.86],
  ["Nc1c(C(=O)c2cccc(C#CCN3CCCCC3)c2)cnn1-c1ccc(F)cc1", ">", 25],
  ["O=C1/C(=C\\c2ccc(Br)cc2)CCCc2ccccc21", "=", 58.5],
  ["CC1(C)OCC(C2OC3OC(C)(C)OC3C2c2ccccc2)O1 (stereo not drawn)", ">", 100],
  ["O=C1CCC2(c3ccccc3)Nc3ccccc3N12 (stereo not drawn)", ">", 100],
  ["O=c1[nH]ncc2[nH]c3c4ccccc4ccc3c12", ">", 100],
  ["Cc1ccc(S(=O)(=O)CNC(=O)C(O)(O)C(F)(F)F)cc1", ">", 100],
  ["COc1ccc(/C=C2\\C[C@H]3[C@@H]4CCC5=C/C(=N/O)CC[C@]5(C)[C@H]4CC[C@]3(C)\\C2=N\\O)cc1", ">", 100],
  ["c1cc2c3c(c1)c1cc4c(cc1c[n+]3CC2)OCO4", "=", 9.96],
  ["CN(C)C(=S)/N=c1\\ssc(=S)n1C", ">", 100]
]}
